# Experimental Target: human IL-1β (human, UniProt P01584 117-269)
# Protocol Notes: cell-based or functional assay
Property Measured: ND50 (nM)

These solved cases illustrate the format of a correct answer.
- Binder: "ABT2-65-512 (other) VH: EVQLLESGGGLVQPGGSLRLSCVASGFTFEDYQMGWVHQAPGKGLEWVSSISAMGNRTYYADSVKGRFTISRDDSKNTLYLQMNSLRAEDTAVYYCAQNLVRLGRSRWMFDYWGQGTLVTVSS"
  ND50 [nM]: 3
- Binder: "ABT2-65-160 (other) VH: EVQLLESGGGLVQPGGSLRLSCVASGFTFEDYQMGWVRQAPGKGLEWVSSISAMGPRTYYADSVKGRFTISRDDSKNTLYLQMNSLRAEDTAVYYCAQNLVRLGRSRWMFDYWGQGTLVTVSS"
  ND50 [nM]: 2

I. ABT2-13 (other) VH: EVQLLESGGGLVQPGGSLRLSCAASGFTFRDYVMYWARQAPGKGLEWVSRIDPMGSSTYYADSVKGRFTISRDNSKNTLYLQMNSLRAEDTAVYYCAKPEGNFDYWGQGTLVTVSS
II. ABT2-65-89 (other, VH dAb) VH: EVQLLESGGGLVQPGGSLRLSCVASGFTFEDYQMGWVRQAPGKGLEWVSSISAMGNRTYYADSVKGRFTISRDDSKNTLYLQMNSLRAEDTAVYYCAQNMVRLGRSRWMFDYWGQGTLVTVSS
Decide: I or II , by lowest recorded ND50. Choose, then provide that item's label.
II
